Tested target: acetylcholine receptor
Assay method text: SPR, receptor immobilized on CM5 chip, peptide 10 uM
Quantity measured: Binding affinity (RU)

binder="RRVYKR [6mer-2-457]" quantity_measured="Binding affinity (RU)" test_value=146
binder="RKRRQR [6mer-1-269]" quantity_measured="Binding affinity (RU)" test_value=142
binder="RKPNGR [6mer-1-901]" quantity_measured="Binding affinity (RU)" test_value=35
binder="RLQYRK [6mer-2-423]" quantity_measured="Binding affinity (RU)" test_value=154
binder="RRGQSR [6mer-1-302]" quantity_measured="Binding affinity (RU)" test_value=151

(P) RSQCRK [6mer-2-460]
(Q) RRYNNR [6mer-1-879]
(R) KKESNK [6mer-1-930]
stdin: Reorder the items by Binding affinity (RU), least to greatest. Submit the labels in the order that the ranking request calls for.
stdout: Q, R, P
